Assay text: ATG_GLI_CIS: Attagene CIS-FACTORIAL HepG2 Assay for human Zinc Finger Protein GLI1 (AID 2282945)
Protocol conditions: HepG2, Attagene cis-factorial reporter mRNA, GLI element; actives raise or lower the signal
Active and inactive are the calls of the source. How the source made its calls: active means hit-call score of the fitted dose curve at least 0.9, where 1 is the maximum; inactive means score below 0.9.
Form entry, call: pick from active, inactive

As a guide, the following entries are already answered.
Compound: CC(C)CCCCCOC(=O)CS
Cat: inactive
--
Compound: CC1CCC(C(C)(C)S)C(=O)C1 (centres undefined)
Cat: inactive

Prompt: What did this assay record as the result for `c1ccc(Nc2cccc3ccccc23)cc1` ?
Response: active

Prompt: Would you kindly repeat that for `CC(=O)OC1CCCCC1` ?
Response: inactive

Prompt: Would you kindly repeat that for `CC(C)(C)NC(=O)[C@H]1CC[C@H]2[C@@H]3CC[C@H]4NC(=O)C=C[C@]4(C)[C@H]3CC[C@]12C` ?
Response: inactive

====

Assay text: ATG_AP_2_CIS: Attagene CIS-FACTORIAL HepG2 Assay for human Activator Protein 2 (AP-2) (AID 2282932)
Protocol conditions: HepG2 AP-2 cis-reporter, Attagene transcription factor profiling; actives raise or lower the signal
Active and inactive are the calls of the source. Rule for the calls: active = hit-call score of the fitted dose curve at least 0.9, where 1 is the maximum; inactive = score below 0.9.
Form entry, call: pick from 1 for active, -1 for inactive

As a guide, the following entries are already answered.
Molecule: CC(C)(C)C1CCC(=O)CC1
Cat: -1
//
Molecule: Oc1ccccc1Cc1ccccc1O
Cat: -1
//
Molecule: O=C(Cl)c1ccc(C(=O)Cl)cc1
Cat: -1
//
Molecule: CC(=O)C(C)C
Cat: -1
//
Molecule: CCOC(=O)C1=NN(c2ccc(Cl)cc2Cl)C(C)(C(=O)OCC)C1 (configuration not stated)
Cat: -1
//
Molecule: CC(C=O)c1ccccc1 (configuration not stated)
Cat: -1

Prompt: What did this assay record as the result for `O=C(Nc1ccccc1)c1cc(Cl)ccc1O` ?
Response: -1

Prompt: Would you kindly repeat that for `CCNc1nc(NC(C)(C)C)nc(OC)n1` ?
Response: -1

====

Assay text: CCTE_Deisenroth_AIME_384WELL_CTox_Inactive: Cytotoxicity Assessment (CTOX) in CCTE's 384-well Estrogen Receptor Transactivation Assay without AIME metabolic competence (metabolism negative), Deisenroth Lab (AID 2284039);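 further: cell viability via live-cell protease substrate cleaved to fluorescent probe; cells exposed 24 h to medium preincubated 2 h with alginate-water beads without S9; loss of fluorescence signal means loss of viability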
Inconclusive results are not listed. Calls of active or inactive are those of the source. The calls were made as follows: active = hit-call score of the fitted dose curve at least 0.9, where 1 is the maximum; inconclusive = response in the unintended direction; inactive = score below 0.9.
Form entry, call: pick from active, inactive

Molecule: N#Cc1ccc(C(c2ccc(C#N)cc2)n2cncn2)cc1
Cat: inactive
//
Molecule: C=C[C@@]1(C)CC(=O)[C@]2(O)[C@@]3(C)[C@@H](O)CCC(C)(C)[C@@H]3[C@H](O)[C@H](OC(C)=O)[C@@]2(C)O1
Cat: inactive
//
Molecule: CCCCCC(=O)OCC
Cat: active
//
Molecule: CCCCCC[C@@H](O)C/C=C\CCCCCCCC(=O)OCC(O)CO (stereo not given in full)
Cat: inactive

Prompt: What did this assay record as the result for `O=C(Nc1ccccc1)c1cc(Cl)ccc1O` ?
Response: active

====

Target or test system: human Peroxisome Proliferator-activated Receptor alpha (PPARa), PPARA (gene 5465)
Assay text: ATG_PPARa_TRANS: Attagene TRANS-FACTORIAL HepG2 Assay for human Peroxisome Proliferator-activated Receptor alpha (PPARa) (AID 2283001)
Description: ATG_TRANS is a cell-based, multiplexed-readout assay that uses HepG2, a human liver cell line, with measurements taken at 24 hours after chemical dosing in a 24-well plate.ATG_PPARa_TRANS is one of 30 assay component(s) measured or calculated from the ATG_TRANS assay. […] This assay endpoint, ATG_PPARa_TRANS, was analyzed in the positive analysis fitting direction relative to DMSO as the negative control and baseline of activity. […]
Records with an inconclusive call do not appear. Activity calls are given as the source filed them. How the source made its calls: active means hit-call score of the fitted dose curve at least 0.9, where 1 is the maximum; inconclusive means response in the unintended direction; inactive means score below 0.9.
Experimental endpoint: outcome

Compound: c1ccc2sc(SSN3CCOCC3)nc2c1
Experimental endpoint: outcome
Result: inactive
//
Compound: CC1(C)CCC[C@]2(C)[C@H]3CC(=O)O[C@]3(C)CC[C@@H]12
Experimental endpoint: outcome
Result: inactive
//
Compound: CCCCC(CC)COC(=O)/C=C/c1ccc(OC)cc1 (centres undefined)
Experimental endpoint: outcome
Result: inactive
//
Compound: COc1ccc(C(=O)/C(Br)=C\C(=O)O)cc1
Experimental endpoint: outcome
Result: inactive
//
Compound: CCCCCCC=O
Experimental endpoint: outcome
Result: inactive
//
Compound: [Cl][Sc]([Cl])[Cl]
Experimental endpoint: outcome
Result: inactive
//
Compound: CCCCCCCCCC[N+](C)(CCCCCCCCCC)CCC[Si](OC)(OC)OC
Experimental endpoint: outcome
Result: inactive
//
Compound: CC1(C)CC(O)CC(C)(C)N1[O]
Experimental endpoint: outcome
Result: inactive

Prompt: Need outcome, item C=C(C)C1CC=C(C)CC1 (centres undefined)
Response: inactive

Prompt: Would you kindly repeat that for CC1=CCC2CC1C2(C)C (centres undefined) ?
Response: inactive

Prompt: Would you kindly repeat that for `Cc1ccc([N+](=O)[O-])cc1N` ?
Response: inactive

Prompt: Would you kindly repeat that for `CC(C)CCOCc1ccccc1` ?
Response: inactive

Prompt: Would you kindly repeat that for `CC(C)CCCCCOC(=O)CS` ?
Response: inactive

Prompt: Would you kindly repeat that for `CCCCCCCCCCCCc1ccc(O)cc1` ?
Response: inactive

====

Assay text: CCTE_Deisenroth_AIME_384WELL_CTox_Inactive: Cytotoxicity Assessment (CTOX) in CCTE's 384-well Estrogen Receptor Transactivation Assay without AIME metabolic competence (metabolism negative), Deisenroth Lab (AID 2284039);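 further: cell viability via live-cell protease substrate cleaved to fluorescent probe; cells exposed 24 h to medium preincubated 2 h with alginate-water beads without S9; loss of fluorescence signal means loss of viability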
Inconclusive results are not listed. Activity calls are given as the source filed them. Rule for the calls: active = hit-call score of the fitted dose curve at least 0.9, where 1 is the maximum; inconclusive = response in the unintended direction; inactive = score below 0.9.
Form entry, call: pick from YES (active), NO (inactive)

As a guide, the following entries are already answered.
Compound: CC(=O)/C=C/C1C(C)=CCCC1(C)C (configuration not stated)
Cat: NO

Compound: CC(=O)OCc1ccccc1
Cat: NO

Compound: C=C1C[C@H]2[C@@H]3C=C(C)C4=CC(=O)CC[C@]4(C)[C@H]3CC[C@]2(C)[C@@]1(OC(C)=O)C(C)=O
Cat: NO

Prompt: What did this assay record as the result for CCCC(CC)c1ccccc1 (configuration not stated) ?
Response: NO

====

Read-out: Pselectin, SELP (gene 6403)
Assay text: BSK_4H_Pselectin: BioMAP Diversity Plus: 4H Assay for Pselectin Biomarker Activity (AID 2283026)
Protocol conditions: primary human endothelial cells (HUVEC); actives raise or lower the signal
Protocol: BSK_4H is a cell-based, multiplexed-readout assay that uses umbilical vein endothelium, a human vascular primary cell, with measurements taken at 24 hours after chemical dosing in a 96-well plate.BSK_4H_Pselectin is an assay component measured in the BSK_4H assay. It measures P-Selectin antibody related to regulation of gene expression using ELISA technology.Data from the assay component BSK_4H_Pselectin was analyzed into 1 assay endpoint. […]
The source made the active and inactive calls. How the source made its calls: active means hit-call score of the fitted dose curve at least 0.9, where 1 is the maximum; inactive means score below 0.9.
Experimental endpoint: AC50

Compound: CCCCCCC=O
AC50: inactive
//
Compound: Clc1cc(Cl)c(Cl)c(Cl)c1Cl
AC50: 34.7 µM (active)
//
Compound: C=CCCCCCCCCC=O
AC50: inactive
//
Compound: c1ccc2sc(SSN3CCOCC3)nc2c1
AC50: 4.4 µM (active)
//
Compound: CCCC(C)C(=O)OCC (centres undefined)
AC50: inactive
//
Compound: C=CC(=O)OCCCCCCOC(=O)C=C
AC50: 10.3 µM (active)
//
Compound: CC(c1cc(C(C)(C)C)cc(C(C)(C)C)c1O)c1cc(C(C)(C)C)cc(C(C)(C)C)c1O
AC50: 0.965 µM (active)
//
Compound: CCC1(C)C(=O)N(Cl)C(=O)N1Cl (centres undefined)
AC50: inactive

We next turn to a different compound, shown below.
Prompt: Need AC50, item `C=C(C)C(=O)OCCCCCCCCCCCC`
Response: inactive

====

Target or test system: human Peroxisome Proliferator-activated Receptor delta (PPARd), PPARD (gene 5467) (UniProt Q03181)
Sequence (Q03181 whole entry, looked up): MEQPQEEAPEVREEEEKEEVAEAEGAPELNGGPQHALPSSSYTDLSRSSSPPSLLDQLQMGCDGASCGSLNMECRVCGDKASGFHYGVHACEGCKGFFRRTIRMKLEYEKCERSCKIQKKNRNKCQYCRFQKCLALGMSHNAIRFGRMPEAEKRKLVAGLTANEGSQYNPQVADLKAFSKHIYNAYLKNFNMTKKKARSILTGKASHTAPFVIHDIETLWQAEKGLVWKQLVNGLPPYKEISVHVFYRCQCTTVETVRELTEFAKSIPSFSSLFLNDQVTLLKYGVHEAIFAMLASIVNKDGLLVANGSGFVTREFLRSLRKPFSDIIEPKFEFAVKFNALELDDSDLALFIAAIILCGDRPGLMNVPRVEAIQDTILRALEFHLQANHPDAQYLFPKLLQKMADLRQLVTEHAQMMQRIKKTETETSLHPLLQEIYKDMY
Assay text: ATG_PPARd_TRANS: Attagene TRANS-FACTORIAL HepG2 Assay for human Peroxisome Proliferator-activated Receptor delta (PPARd) (AID 2283002)
Records with an inconclusive call do not appear. Calls of active or inactive are those of the source. How the source made its calls: active means hit-call score of the fitted dose curve at least 0.9, where 1 is the maximum; inconclusive means response in the unintended direction; inactive means score below 0.9.
Form entry, call: pick from yes for active, no for inactive

Prompt: What did this assay record as the result for `CCCCCC1=CCCC1=O` ?
Response: no

Prompt: Would you kindly repeat that for CCCCCC[C@@H](O)C/C=C\CCCCCCCC(=O)OCC(O)CO (stereo not given in full) ?
Response: yes

Prompt: Would you kindly repeat that for `CC(C)(C)NC(=O)[C@H]1CC[C@H]2[C@@H]3CC[C@H]4NC(=O)C=C[C@]4(C)[C@H]3CC[C@]12C` ?
Response: no

Prompt: Would you kindly repeat that for CC1=CC(C)C(C=O)CC1 (stereo not given) ?
Response: no

Prompt: Would you kindly repeat that for `CC(C)=NNC(N)=S` ?
Response: no

====

Target or test system: Heat shock factor protein 1 (Homo sapiens) (UniProt Q00613)
Sequence (Q00613 whole entry, looked up): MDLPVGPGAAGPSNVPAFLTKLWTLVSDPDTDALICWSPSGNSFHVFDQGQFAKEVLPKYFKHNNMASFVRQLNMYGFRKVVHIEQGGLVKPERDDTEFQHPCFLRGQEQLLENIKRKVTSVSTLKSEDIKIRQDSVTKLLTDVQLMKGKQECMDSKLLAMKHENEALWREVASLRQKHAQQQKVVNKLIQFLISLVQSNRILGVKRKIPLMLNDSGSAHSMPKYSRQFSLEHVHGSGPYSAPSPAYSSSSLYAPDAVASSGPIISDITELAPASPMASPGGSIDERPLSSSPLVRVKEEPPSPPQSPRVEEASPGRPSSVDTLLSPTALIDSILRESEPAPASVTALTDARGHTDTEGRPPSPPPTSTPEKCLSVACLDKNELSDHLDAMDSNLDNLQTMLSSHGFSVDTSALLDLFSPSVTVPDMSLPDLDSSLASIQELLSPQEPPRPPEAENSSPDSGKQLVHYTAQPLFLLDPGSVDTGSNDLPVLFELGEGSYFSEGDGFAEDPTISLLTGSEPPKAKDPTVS
Assay text: ATG_HSE_CIS: Attagene CIS-FACTORIAL HepG2 Assay for human Heat Shock Transcription Factor 1 (HSE) (AID 2282953)
Protocol conditions: HepG2 HSE cis-reporter, Attagene RNA transcription; actives raise or lower the signal
Procedure: ATG_CIS is a cell-based, multiplexed-readout assay that uses HepG2, a human liver cell line, with measurements taken at 24 hours after chemical dosing in a 24-well plate.ATG_HSE_CIS is one of 52 assay component(s) measured or calculated from the ATG_CIS assay. […] This assay endpoint, ATG_HSE_CIS, was analyzed with bidirectional fitting relative to DMSO as the negative control and baseline of activity. […]
Active and inactive are the calls of the source. Rule for the calls: active = hit-call score of the fitted dose curve at least 0.9, where 1 is the maximum; inactive = score below 0.9.
Form entry, call: pick from true (active), false (inactive)

Compound: CCCCC/C=C\C/C=C\CCCCCCCC(=O)O
Cat: true
--
Compound: CCN1CCCC1=O
Cat: false
--
Compound: COC(=O)C=Cc1ccccc1
Cat: false

Prompt: What did this assay record as the result for `CC1(C)C(=O)N(CO)C(=O)N1CO` ?
Response: false

Prompt: Would you kindly repeat that for `CC(C)CCCCCOC(=O)CS` ?
Response: false

Prompt: Would you kindly repeat that for `O=C(O)CCCC(=O)O` ?
Response: false

Prompt: Would you kindly repeat that for `O=C(Nc1ccccc1)c1cc(Cl)ccc1O` ?
Response: true
